assay: Plasma protein binding in healthy human at 10 mg/kg, po; format: ADME, organism-based; parameters: dose 10 mg/kg, route oral; conditions: read-out: PPB (converted)
measuredQuantity: fraction unbound
// print number alone

The measured fraction unbound associated with `CO[C@H]1/C=C/O[C@@]2(C)Oc3c(C)c(O)c4c(O)c(c(/C=N/N5CCN(C)CC5)c(O)c4c3C2=O)NC(=O)/C(C)=C\C=C\[C@H](C)[C@H](O)[C@@H](C)[C@@H](O)[C@@H](C)[C@H](OC(C)=O)[C@@H]1C` reads 0.15

###

experiment: Tmax in human; assay type: ADME, organism-based; conditions: in vivo
measuredQuantity: Tmax (h)
Give the quantity in h, number only.

The compound `COc1nc2ccc(Br)cc2cc1[C@@H](c1ccccc1)[C@@](O)(CCN(C)C)c1cccc2ccccc12` showed Tmax equal to 5

###

test: clinical; details: human, plasma, po, 400 mg/kg
Description: Plasma protein binding in healthy human at 400 mg/kg, po
measuredQuantity: fraction unbound
Give a plain numeric answer without units written out.

According to the records, this compound COc1c(N2CCNC(C)C2)c(F)cc2c(=O)c(C(=O)O)cn(C3CC3)c12 (stereo unspecified) [GATIFLOXACIN] displays fraction unbound of 0.8

###

experiment: Tmax in healthy human at 600 mg/kg, po; assay type: ADME, organism-based; design: dose 600 mg/kg, route oral; conditions: in vivo
measuredQuantity: Tmax (h)
Write down the numeric answer in h and omit the unit.

Value of measured Tmax for the entry `CO[C@H]1/C=C/O[C@@]2(C)Oc3c(C)c(O)c4c(O)c(c(/C=N/N5CCN(C6CCCC6)CC5)c(O)c4c3C2=O)NC(=O)/C(C)=C\C=C\[C@H](C)[C@H](O)[C@@H](C)[C@@H](O)[C@@H](C)[C@H](OC(C)=O)[C@@H]1C` : 4.8

###

Measured Tmax values are reported for all entries that follow.
assay: clinical; details: human, in vivo, po, 400 mg/kg
Description: Tmax in patients with pulmonary tuberculosis at 400 mg/kg, po
Quick note: give the figure in h, leave out the unit.

{"compound": "COc1c(N2CCNC(C)C2)c(F)cc2c(=O)c(C(=O)O)cn(C3CC3)c12 (configuration not stated)", "numericResult": 1.5}

Note to self: Tmax recorded for `COc1c(N2C[C@@H]3CCCN[C@@H]3C2)c(F)cc2c(=O)c(C(=O)O)cn(C3CC3)c12` was 1
